# System Under Test: Dicer (human, UniProt Q9UPY3 1-1922)
# Sequence (Q9UPY3 whole entry): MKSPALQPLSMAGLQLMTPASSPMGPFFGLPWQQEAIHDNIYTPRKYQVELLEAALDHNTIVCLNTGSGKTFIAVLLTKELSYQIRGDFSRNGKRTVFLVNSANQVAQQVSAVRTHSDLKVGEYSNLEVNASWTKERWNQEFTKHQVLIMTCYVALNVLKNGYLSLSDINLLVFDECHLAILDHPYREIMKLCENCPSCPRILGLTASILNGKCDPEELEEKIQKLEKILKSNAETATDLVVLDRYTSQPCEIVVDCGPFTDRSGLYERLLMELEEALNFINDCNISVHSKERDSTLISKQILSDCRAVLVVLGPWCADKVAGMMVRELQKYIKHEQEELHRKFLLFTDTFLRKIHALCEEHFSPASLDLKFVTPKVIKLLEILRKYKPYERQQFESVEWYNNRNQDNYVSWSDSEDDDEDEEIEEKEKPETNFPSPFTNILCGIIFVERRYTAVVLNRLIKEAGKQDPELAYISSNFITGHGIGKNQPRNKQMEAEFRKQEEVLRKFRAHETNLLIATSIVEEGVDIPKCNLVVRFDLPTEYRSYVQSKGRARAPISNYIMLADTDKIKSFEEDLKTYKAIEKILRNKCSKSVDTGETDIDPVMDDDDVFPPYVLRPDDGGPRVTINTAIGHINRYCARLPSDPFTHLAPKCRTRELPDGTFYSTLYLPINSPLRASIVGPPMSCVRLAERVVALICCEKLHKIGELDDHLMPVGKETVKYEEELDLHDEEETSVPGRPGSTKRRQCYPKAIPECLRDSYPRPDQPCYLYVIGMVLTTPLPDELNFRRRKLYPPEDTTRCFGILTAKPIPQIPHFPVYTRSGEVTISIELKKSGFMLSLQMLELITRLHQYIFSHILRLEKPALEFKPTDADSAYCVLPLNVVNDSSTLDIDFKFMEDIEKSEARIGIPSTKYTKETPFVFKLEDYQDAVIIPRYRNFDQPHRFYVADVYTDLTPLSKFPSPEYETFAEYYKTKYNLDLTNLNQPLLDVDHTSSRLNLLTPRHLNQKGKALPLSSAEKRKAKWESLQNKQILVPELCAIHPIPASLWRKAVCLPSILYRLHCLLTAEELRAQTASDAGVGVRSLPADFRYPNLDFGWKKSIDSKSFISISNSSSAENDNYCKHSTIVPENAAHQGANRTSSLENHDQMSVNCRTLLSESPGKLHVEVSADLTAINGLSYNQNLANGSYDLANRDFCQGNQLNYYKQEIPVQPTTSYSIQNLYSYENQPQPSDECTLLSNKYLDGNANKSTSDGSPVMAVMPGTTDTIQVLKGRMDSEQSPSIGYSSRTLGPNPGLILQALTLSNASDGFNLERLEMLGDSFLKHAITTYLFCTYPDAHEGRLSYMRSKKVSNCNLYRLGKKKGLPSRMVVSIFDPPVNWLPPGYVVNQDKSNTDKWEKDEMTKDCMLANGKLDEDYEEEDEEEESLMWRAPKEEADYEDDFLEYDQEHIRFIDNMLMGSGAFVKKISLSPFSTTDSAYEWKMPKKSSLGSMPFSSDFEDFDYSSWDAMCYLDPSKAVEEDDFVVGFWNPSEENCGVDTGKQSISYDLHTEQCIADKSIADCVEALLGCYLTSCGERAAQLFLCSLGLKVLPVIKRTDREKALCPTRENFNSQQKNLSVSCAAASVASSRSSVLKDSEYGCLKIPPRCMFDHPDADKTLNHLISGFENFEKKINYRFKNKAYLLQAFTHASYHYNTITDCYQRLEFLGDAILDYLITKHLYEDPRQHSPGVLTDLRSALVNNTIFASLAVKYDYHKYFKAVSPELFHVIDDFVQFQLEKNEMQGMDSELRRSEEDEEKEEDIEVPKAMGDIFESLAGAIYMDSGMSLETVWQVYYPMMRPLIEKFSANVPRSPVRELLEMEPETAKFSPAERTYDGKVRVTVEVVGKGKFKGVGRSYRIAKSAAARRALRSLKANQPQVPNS
# Protocol Text: filter binding
Measurement Name: Kd (nM)
Quick reminder: number only, in nM, skip the unit.

{"columns": ["Binder", "Assay Result"],
 "data": [
  ["35-bp duplex (pre-siRNA) (dsRNA) RNA 1: UGAGGUAGUAGGUUGUAUAGUUUGAAAGUUCACGAUU RNA 2: UCGUGAACUUUCAAACUAUACAACCUACUACCUCAAA", 3.4]
]}

Prompt: So what's the measured Kd for this one? pre-let-7a (structured_RNA) RNA: UGAGGUAGUAGGUUGUAUAGUUUUAGGGUCACACCCACCACUGGGAGAUAACUAUACAAUCUACUGUCUUACC
Completion: 1.8
